System: OVCAR-3 ovarian
procedureDetails: NCI tumour cell line growth inhibition, 48 h; in the data active = GI50 below about 0.43 µM; inactive = the rest
Hi! Could you answer with just one of these? active, inactive

Worked cases, answers included:
chemicalString: CNC(=O)c1nn(C)c2c1C(C)(C)Cc1cnc(Nc3ccc(N4CCN(C)CC4)cc3)nc1-2
targetOrSystem: OVCAR-3 ovarian
class: inactive
//
chemicalString: C=C1C[C@@H]2CC[C@@]34C[C@H]5O[C@H]6[C@@H](O3)[C@H]3O[C@H](CC[C@@H]3O[C@H]6[C@@H]5O4)CC(=O)C[C@@H]3[C@@H](OC)[C@@H](C[C@H](O)CN)O[C@H]3C[C@H]3O[C@@H](CC[C@@H]1O2)C[C@@H](C)C3=C
targetOrSystem: OVCAR-3 ovarian
class: active
//
chemicalString: CCNC(=O)c1noc(-c2cc(C(C)C)c(O)cc2O)c1-c1ccc(CN2CCOCC2)cc1
targetOrSystem: OVCAR-3 ovarian
class: active
//
chemicalString: O=c1cc(/C=C/c2ccccc2)[nH]c2cc3c(cc12)OCO3
targetOrSystem: OVCAR-3 ovarian
class: inactive
//
chemicalString: COc1cc(NCCCCCCCNC(C)C)c2nccc(C)c2c1
targetOrSystem: OVCAR-3 ovarian
class: inactive
//
chemicalString: C=C(CN(C)C)C(=O)c1ccccc1[N+](=O)[O-]
targetOrSystem: OVCAR-3 ovarian
class: inactive
//
chemicalString: CC(C)(C)c1cc(C=C(C#N)C#N)cc(C(C)(C)C)c1O
targetOrSystem: OVCAR-3 ovarian
class: inactive

Next:
Answer briefly: the call reported for `C=C1C(=O)O[C@H]2[C@H]1CC/C(C=Nc1c(N)cc(C(F)(F)F)cc1Br)=C\CC[C@@]1(C)O[C@@H]21` in this assay.
inactive
